- system-name: UniProtKB Q15349
- Sequence (Q15349 whole entry): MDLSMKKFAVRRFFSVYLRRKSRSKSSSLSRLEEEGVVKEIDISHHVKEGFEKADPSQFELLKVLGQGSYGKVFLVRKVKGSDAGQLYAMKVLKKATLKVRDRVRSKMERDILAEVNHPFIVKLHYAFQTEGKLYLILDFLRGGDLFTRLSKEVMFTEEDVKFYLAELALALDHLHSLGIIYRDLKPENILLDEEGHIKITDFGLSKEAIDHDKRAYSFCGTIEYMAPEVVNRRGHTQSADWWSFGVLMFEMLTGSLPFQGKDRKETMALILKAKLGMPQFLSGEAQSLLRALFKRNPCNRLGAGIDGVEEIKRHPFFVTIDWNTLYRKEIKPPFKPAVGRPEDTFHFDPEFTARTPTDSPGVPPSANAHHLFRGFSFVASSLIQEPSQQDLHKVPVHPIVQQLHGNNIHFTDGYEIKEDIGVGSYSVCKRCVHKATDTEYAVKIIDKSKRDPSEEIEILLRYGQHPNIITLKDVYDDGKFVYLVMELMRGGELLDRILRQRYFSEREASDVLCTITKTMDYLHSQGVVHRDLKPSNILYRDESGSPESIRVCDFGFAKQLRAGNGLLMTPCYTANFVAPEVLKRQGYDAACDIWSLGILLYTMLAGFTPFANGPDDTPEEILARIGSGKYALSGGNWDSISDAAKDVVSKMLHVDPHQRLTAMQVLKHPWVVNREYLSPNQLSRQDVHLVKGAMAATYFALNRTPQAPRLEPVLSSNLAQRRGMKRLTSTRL
- assay-comment: Inhibition of full length recombinant GST-tagged human RSK3 expressed in insect cell using biotin-labelled AGAGRSRHSSYPAGT-OH as substrate in presence of ATP
experimental-readout: IC50
Field note: include the unit after the figure.

Input line: What value of measured IC50 is listed for CN1CCN(c2ccc(-c3ccncc3-c3cc(F)c(O)c(F)c3)cc2)CC1 ?
Output line: 4 nM

Input line: Given Oc1c(F)cc(-c2cnccc2-c2ccc(N3CCOCC3)cc2)cc1F , state its recorded IC50.
Output line: 13 nM

----------
- system-name: Ribosomal protein S6 kinase alpha-1 (Homo sapiens, UniProt Q15418)
- Sequence (Q15418 whole entry): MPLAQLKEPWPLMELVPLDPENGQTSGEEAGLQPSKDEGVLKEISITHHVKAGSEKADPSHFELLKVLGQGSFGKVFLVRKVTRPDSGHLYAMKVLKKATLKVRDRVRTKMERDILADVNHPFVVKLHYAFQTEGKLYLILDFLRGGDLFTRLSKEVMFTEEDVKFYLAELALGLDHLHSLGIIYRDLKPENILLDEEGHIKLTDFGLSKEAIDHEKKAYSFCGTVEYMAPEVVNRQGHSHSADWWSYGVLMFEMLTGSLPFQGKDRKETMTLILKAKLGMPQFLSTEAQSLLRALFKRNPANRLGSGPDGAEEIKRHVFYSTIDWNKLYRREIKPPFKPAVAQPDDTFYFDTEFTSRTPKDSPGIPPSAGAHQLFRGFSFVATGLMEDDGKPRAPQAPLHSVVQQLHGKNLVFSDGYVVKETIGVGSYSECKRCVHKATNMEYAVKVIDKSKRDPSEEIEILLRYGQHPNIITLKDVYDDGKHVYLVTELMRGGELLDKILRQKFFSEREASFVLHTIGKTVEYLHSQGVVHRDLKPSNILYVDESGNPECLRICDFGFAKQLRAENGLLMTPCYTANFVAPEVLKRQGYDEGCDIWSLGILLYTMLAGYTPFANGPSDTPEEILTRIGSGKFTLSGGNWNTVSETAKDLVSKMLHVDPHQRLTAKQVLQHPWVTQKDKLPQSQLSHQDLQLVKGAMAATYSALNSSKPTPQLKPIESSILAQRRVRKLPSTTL
- assay-comment: Inhibition of full length recombinant His-tagged human RSK1 expressed in baculovirus expression system using biotin-labelled AGAGRSRHSSYPAGT-OH as substrate in presence of ATP
experimental-readout: pIC50
Would you please state pIC50, meaning minus log10 of the concentration in mol/L, as a bare number?

CN1CCN(c2ccc(-c3ccncc3-c3cc(F)c(O)c(F)c3)cc2)CC1	8.22

Here is another molecule to look at.
Input line: For the molecule Oc1c(F)cc(-c2cnccc2-c2ccc(N3CCOCC3)cc2)cc1F , what pIC50 is on record?
Output line: 8.30
